Target: Prothrombin (Homo sapiens)
pKi: −log10 of the molar value.
Label Yes when pKi >= 9; otherwise No.

Would you say "Cc1cc(C(=O)NCc2cc(Cl)ccc2-n2cnnn2)cc(C(=O)N(CC(C)C)CC(C)C)c1" shows pKi at minimum 9?
Yes

Would you say "CC(=O)N(c1cc(C)cc(C(=O)NCc2cc(Cl)ccc2-n2cnnn2)c1)C1CCCCC1" shows pKi at minimum 9?
No

Would you say "Cc1cc(OCC(F)(F)c2cc(C)ccn2)cc(C(=O)N(CC(C)C)CC(C)C)c1" shows pKi at minimum 9?
No

Would you say "Cc1cc(C(=O)NCc2cc(Cl)ccc2-n2cnnn2)cc(-c2cnccc2C(C)C)c1" shows pKi at minimum 9?
Yes

Would you say "Cc1cc(C(=O)NCc2ccccc2-n2cnnn2)cc(C(=O)N(CC(C)C)CC(C)C)c1" shows pKi at minimum 9?
No

Would you say "Cc1cc(OCCc2nc[nH]c2C)cc(C(=O)N(CC(C)C)CC(C)C)c1" shows pKi at minimum 9?
No

Would you say "Cc1cc(NC2CCCCC2)cc(C(=O)NCc2cc(Cl)ccc2-n2cnnn2)c1" shows pKi at minimum 9?
No
